Parameter: remaining activity at 1000 µM. Scope: all listed entries.
target: CeTS (Caenorhabditis elegans)
assay-comment: Inhibition of TS-catalyzed reaction (tritium release from [5-3H]dUMP)
Format: biochemical, C. elegans
test-settings: compound 1000 µM; 20 µM dUMP, 250 µM meTHF; read-out: % Remaining Activity

{"molecule": "COc1c(C2(O)COc3cc(O)cc(O)c3C2=O)ccc2c1C=CC(C)(C)O2 (stereo not drawn)", "remaining activity at 1000 µM (%)": 8}
{"molecule": "O=C(OCC1=C[C@@H](O)[C@@H]2C=CO[C@@H](O[C@@H]3O[C@H](CO)[C@@H](O)[C@H](O)[C@H]3O)[C@H]12)c1ccc(O)cc1 [Agnuside (8), Agnuside]", "remaining activity at 1000 µM (%)": 36}
{"molecule": "COc1c(O)cc2oc(-c3ccccc3)c(O)c(=O)c2c1O", "remaining activity at 1000 µM (%)": 80}
{"molecule": "O=C1c2c(O)cccc2C([C@@H]2O[C@H](CO)[C@@H](O)[C@H](O)[C@H]2O)c2cc(CO)cc(O)c21 (stereo partly drawn)", "remaining activity at 1000 µM (%)": 36}
{"molecule": "O=C(/C=C/c1ccc(O)c(O)c1)O[C@@H]1C[C@](O)(C(=O)O)C[C@@H](O)[C@H]1O", "remaining activity at 1000 µM (%)": 82}
{"molecule": "CC(C)=CCc1c(O)ccc2c1OC(c1ccccc1)CC2=O (racemic) [(±)-7-Hydro-xy-8-C-prenyl flavanone]", "remaining activity at 1000 µM (%)": 3}

----------
assay-comment: Cytotoxicity, neutral red uptake (NR) assay
Type: cell-based, human
test-settings: human, BJ normal skin fibroblasts; NR assay, 40 µM, 48 h, fibroblasts
readout-label: viability at 48 h, 40 µM (%)

{"chem-smiles": "C=CC(C)(C)c1c(O)cc2oc3c(O)c(O)cc(CC=C(C)C)c3c(=O)c2c1O", "observed-value": 35}

----------
Catalogue of remaining activity at 1000 µM values
target: TsTS (Trichinella spiralis)
Sequence (Q9NDD3 entry or part of it): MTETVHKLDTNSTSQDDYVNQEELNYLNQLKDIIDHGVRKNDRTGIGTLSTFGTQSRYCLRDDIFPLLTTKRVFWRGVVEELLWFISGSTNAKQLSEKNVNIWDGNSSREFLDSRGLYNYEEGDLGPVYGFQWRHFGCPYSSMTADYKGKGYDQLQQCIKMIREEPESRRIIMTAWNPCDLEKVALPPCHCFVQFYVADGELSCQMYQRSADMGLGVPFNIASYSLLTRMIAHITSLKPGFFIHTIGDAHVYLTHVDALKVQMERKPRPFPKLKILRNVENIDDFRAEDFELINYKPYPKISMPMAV
assay-comment: Inhibition of TS-catalyzed reaction (tritium release from [5-3H]dUMP)
Type: biochemical, T. spiralis
test-settings: compound 1000 µM; 20 µM dUMP, 250 µM meTHF

{"compound": "COc1cc(/C=C/C(=O)O[C@H]2[C@H](O[C@@H]3O[C@@H](C)[C@H](O)[C@@H](O)[C@H]3O)[C@@H](O)[C@H](OCCc3ccc(O)c(O)c3)O[C@@H]2CO)ccc1O [Leucosceptoside A (13), Leucosceptoside A]", "target": "TsTS (Trichinella spiralis)", "reading-qualifier": ">", "remaining activity at 1000 µM / %": 100}
{"compound": "O=C(/C=C/c1ccc(O)c(O)c1)O[C@@H]1C[C@](O)(C(=O)O)C[C@@H](O)[C@H]1O", "target": "TsTS (Trichinella spiralis)", "reading-qualifier": "=", "remaining activity at 1000 µM / %": 94}
{"compound": "CC12CCC3C(C1)c1c(cc(O)c(C(=O)c4ccccc4)c1OC3(C)C)O2 (stereo not drawn)", "target": "TsTS (Trichinella spiralis)", "reading-qualifier": "=", "remaining activity at 1000 µM / %": 95}
{"compound": "O=C(OCC1=C[C@@H](O)[C@@H]2C=CO[C@@H](O[C@@H]3O[C@H](CO)[C@@H](O)[C@H](O)[C@H]3O)[C@H]12)c1ccc(O)cc1 [Agnuside (8), Agnuside]", "target": "TsTS (Trichinella spiralis)", "reading-qualifier": "=", "remaining activity at 1000 µM / %": 63}
{"compound": "COc1c(C2(O)COc3cc(O)cc(O)c3C2=O)ccc2c1C=CC(C)(C)O2 (stereo not drawn)", "target": "TsTS (Trichinella spiralis)", "reading-qualifier": "=", "remaining activity at 1000 µM / %": 35}
{"compound": "CC(=O)Oc1c(O)cc(-c2oc3cc(O)cc(O)c3c(=O)c2O)cc1O", "target": "TsTS (Trichinella spiralis)", "reading-qualifier": "=", "remaining activity at 1000 µM / %": 66}

----------
target: CeTS (Caenorhabditis elegans)
assay-comment: Inhibition of TS-catalyzed reaction (tritium release from [5-3H]dUMP)
Type: biochemical, C. elegans
test-settings: compound 1000 µM; 20 µM dUMP, 250 µM meTHF; read-out: % Remaining Activity
Here, each record is paired with measured remaining activity at 1000 µM data.

{"compound": "COc1cc(/C=C/C(=O)O[C@H]2[C@H](O[C@@H]3O[C@@H](C)[C@H](O)[C@@H](O)[C@H]3O)[C@@H](O)[C@H](OCCc3ccc(O)c(O)c3)O[C@@H]2CO)ccc1O [Leucosceptoside A (13), Leucosceptoside A]", "measure-unit": "%", "remaining activity at 1000 µM": 83}
{"compound": "CC(=O)Oc1c(O)cc(-c2oc3cc(O)cc(O)c3c(=O)c2O)cc1O [Myricetin-4′-OAc (7), Myricetin-4′-OAc]", "measure-unit": "%", "remaining activity at 1000 µM": 28}
{"compound": "O=C(CCc1ccc(O)cc1)c1c(O)cc(O)cc1O [Phloretin (4), Phloretin]", "measure-unit": "%", "remaining activity at 1000 µM": 48}

----------
Measured remaining activity at 1000 µM accompanies every entry in the list below.
target: CeTS (Caenorhabditis elegans, UniProt Q9Y052)
Sequence (Q9Y052 1-315): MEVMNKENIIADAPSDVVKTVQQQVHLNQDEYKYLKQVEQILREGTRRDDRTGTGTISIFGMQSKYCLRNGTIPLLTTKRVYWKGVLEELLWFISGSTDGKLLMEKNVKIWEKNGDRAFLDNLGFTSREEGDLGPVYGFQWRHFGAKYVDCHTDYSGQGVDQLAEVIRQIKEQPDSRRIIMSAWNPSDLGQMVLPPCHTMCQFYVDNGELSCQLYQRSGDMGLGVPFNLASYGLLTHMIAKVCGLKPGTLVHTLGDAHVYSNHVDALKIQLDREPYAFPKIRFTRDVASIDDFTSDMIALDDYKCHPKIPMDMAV
assay-comment: Inhibition of TS-catalyzed reaction (tritium release from [5-3H]dUMP)
Type: biochemical, C. elegans

{"compound": "CC1=C[C@]2(O)C(=O)[C@H](C)C[C@@H]3[C@H](CC[C@](C)(O)C[C@H]2C1=O)C3(C)C", "measure-unit": "%", "remaining activity at 1000 µM": 77}
{"compound": "COc1c(O)cc2oc3ccccc3c(=O)c2c1O", "measure-unit": "%", "remaining activity at 1000 µM": 65}
{"compound": "COc1ccc2oc3ccccc3c(=O)c2c1", "measure-unit": "%", "remaining activity at 1000 µM": 95}
{"compound": "CC12CCC3C(C1)c1c(cc(O)c(C(=O)c4ccccc4)c1OC3(C)C)O2 (stereo not shown)", "measure-unit": "%", "remaining activity at 1000 µM": 44}

----------
target: hTS (Homo sapiens)
Construct: made in house
Sequence (P04818 whole entry): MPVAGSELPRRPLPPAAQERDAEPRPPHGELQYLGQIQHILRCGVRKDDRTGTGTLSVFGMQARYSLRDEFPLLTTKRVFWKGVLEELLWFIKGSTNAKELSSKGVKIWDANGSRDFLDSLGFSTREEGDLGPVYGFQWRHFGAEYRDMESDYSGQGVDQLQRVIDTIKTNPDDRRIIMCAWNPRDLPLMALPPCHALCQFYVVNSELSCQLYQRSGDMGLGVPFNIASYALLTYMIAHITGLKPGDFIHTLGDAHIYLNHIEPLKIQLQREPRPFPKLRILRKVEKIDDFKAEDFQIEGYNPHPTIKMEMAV
assay-comment: Inhibition of TS-catalyzed reaction (tritium release from [5-3H]dUMP)
Assay type: biochemical
test-settings: 20 µM dUMP, 250 µM meTHF; read-out: IC50 Assessment
The following compounds are shown together with reported IC50 values.

{"compound": "C=CC(C)(C)c1c(O)cc2oc3c(O)c(O)cc(CC=C(C)C)c3c(=O)c2c1O", "IC50": "< 0.01 mM"}
{"compound": "COc1cc(/C=C/C(=O)O[C@H]2[C@H](O[C@@H]3O[C@@H](C)[C@H](O)[C@@H](O)[C@H]3O)[C@@H](O)[C@H](OCCc3ccc(O)c(O)c3)O[C@@H]2CO)ccc1O [Leucosceptoside A (13), Leucosceptoside A]", "IC50": "> 1 mM"}
{"compound": "CC(=O)Oc1c(O)cc(-c2oc3cc(O)cc(O)c3c(=O)c2O)cc1O", "IC50": "> 1 mM"}
{"compound": "O=C(/C=C/c1ccc(O)c(O)c1)O[C@@H]1C[C@](O)(C(=O)O)C[C@@H](O)[C@H]1O", "IC50": "> 1 mM"}

----------
target: CeTS (Caenorhabditis elegans, UniProt Q9Y052)
assay-comment: Inhibition of TS-catalyzed reaction (tritium release from [5-3H]dUMP)
Format: biochemical, C. elegans
test-settings: 20 µM dUMP, 250 µM meTHF; read-out: IC50 Assessment

{"molecule": "O=C(OCC1=C[C@@H](O)[C@@H]2C=CO[C@@H](O[C@@H]3O[C@H](CO)[C@@H](O)[C@H](O)[C@H]3O)[C@H]12)c1ccc(O)cc1 [Agnuside (8), Agnuside]", "IC50": "> 100 µM"}
{"molecule": "CC(=O)Oc1c(O)cc(-c2oc3cc(O)cc(O)c3c(=O)c2O)cc1O", "IC50": "> 100 µM"}
{"molecule": "COc1c(C2(O)COc3cc(O)cc(O)c3C2=O)ccc2c1C=CC(C)(C)O2 (stereo not drawn)", "IC50": "> 100 µM"}
{"molecule": "COc1c(O)cc2oc(-c3ccccc3)c(O)c(=O)c2c1O", "IC50": "> 1000 µM"}
{"molecule": "CC(C)=CCc1c(O)ccc2c1OC(c1ccccc1)CC2=O (racemic) [(±)-7-Hydro-xy-8-C-prenyl flavanone]", "IC50": "> 100 µM"}
{"molecule": "O=C1c2c(O)cccc2C([C@@H]2O[C@H](CO)[C@@H](O)[C@H](O)[C@H]2O)c2cc(CO)cc(O)c21 (stereo partly drawn)", "IC50": "> 100 µM"}
{"molecule": "O=C(/C=C/c1ccc(O)c(O)c1)O[C@@H]1C[C@](O)(C(=O)O)C[C@@H](O)[C@H]1O", "IC50": "> 1000 µM"}
{"molecule": "O=C(CCc1ccc(O)cc1)c1c(O)cc(O)cc1O", "IC50": "> 100 µM"}
{"molecule": "COc1cc(/C=C/C(=O)O[C@H]2[C@H](O[C@@H]3O[C@@H](C)[C@H](O)[C@@H](O)[C@H]3O)[C@@H](O)[C@H](OCCc3ccc(O)c(O)c3)O[C@@H]2CO)ccc1O [Leucosceptoside A (13), Leucosceptoside A]", "IC50": "> 1000 µM"}

meta.source: paper PMC7356228
